Listing: CC50 at 24 h of selected compounds
# assayProtocol: in vitro
# runConditions: human
Where a SMILES comes first, the peptide text is derived from it. Bridges are numbered along the chain shown (N, C = ends). [ ]: non-standard residue; d: D form. The star is where a group is joined. Butanoyl(4-OPh) = O=C(CCCOc1ccccc1)*; X2 = CCCCCOc1cccc(C(=O)*)c1; dDab = NCC[C@@H](N)C(=O)O; Octanoyl = CCCCCCCC(=O)*; Dab = NCC[C@H](N)C(=O)O
measurementKind: CC50 at 24 h

compound	recordedResult
CCCCCCCC(=O)N[C@H](C(=O)N[C@@H](Cc1c[nH]cn1)C(=O)N[C@H]1CCNC(=O)[C@H]([C@@H](C)O)NC(=O)[C@H](CCN)NC(=O)[C@H](CCN)NC(=O)[C@H](CC(C)C)NC(=O)[C@@H](Cc2ccccc2)NC(=O)[C@H](CCN)NC1=O)[C@@H](C)O [Compound 47] (Octanoyl-TH[Dab][Dab][dF]L[Dab][Dab]T; lactam 3-C)	> 300 µM
CCCCCCCC(=O)N[C@@H](CCN)C(=O)N[C@H](C(=O)NCC(=O)N[C@H]1CCNC(=O)[C@H]([C@@H](C)O)NC(=O)[C@H](CCN)NC(=O)[C@H](CCN)NC(=O)[C@H](CC(C)C)NC(=O)[C@@H](Cc2ccccc2)NC(=O)[C@H](CCN)NC1=O)[C@@H](C)O [Compound 50] (Octanoyl-[Dab]TG[Dab][Dab][dF]L[Dab][Dab]T; lactam 4-C)	> 300 µM
CCCCCCCC(=O)N[C@H](C(=O)N[C@H](CCN)C(=O)N[C@H]1CCNC(=O)[C@H]([C@@H](C)O)NC(=O)[C@H](CCN)NC(=O)[C@H](CCN)NC(=O)[C@H](CC(C)C)NC(=O)[C@@H](Cc2ccccc2)NC(=O)[C@H](CCN)NC1=O)[C@@H](C)O [Compound 21] (Octanoyl-T[dDab][Dab][Dab][dF]L[Dab][Dab]T; lactam 3-C)	289 µM
CC(C)C[C@@H]1NC(=O)[C@@H](Cc2ccccc2)NC(=O)[C@H](CCN)NC(=O)[C@@H](NC(=O)[C@@H](CCN)NC(=O)[C@@H](NC(=O)CCCOc2ccccc2)[C@@H](C)O)CCNC(=O)[C@H]([C@@H](C)O)NC(=O)[C@H](CCN)NC(=O)[C@H](CCN)NC1=O [Compound 26] ({Butanoyl(4-OPh)}-T[dDab][Dab][Dab][dF]L[Dab][Dab]T; lactam 3-C)	> 300 µM
CCCCCCCC(=O)N[C@@H](CCC(=O)O)C(=O)N[C@H](CCN)C(=O)N[C@H]1CCNC(=O)[C@H]([C@@H](C)O)NC(=O)[C@H](CCN)NC(=O)[C@H](CCN)NC(=O)[C@H](CC(C)C)NC(=O)[C@@H](Cc2ccccc2)NC(=O)[C@H](CCN)NC1=O [Compound 32] (Octanoyl-E[dDab][Dab][Dab][dF]L[Dab][Dab]T; lactam 3-C)	> 300 µM
CCCCCOc1cccc(C(=O)N[C@H](C(=O)N[C@@H](CCN)C(=O)N[C@H]2CCNC(=O)[C@H]([C@@H](C)O)NC(=O)[C@H](CCN)NC(=O)[C@H](CCN)NC(=O)[C@H](CC(C)C)NC(=O)[C@@H](Cc3ccccc3)NC(=O)[C@H](CCN)NC2=O)[C@@H](C)O)c1 [Compound 11] (X2-T[Dab][Dab][Dab][dF]L[Dab][Dab]T; lactam 3-C)	93 µM
